Catalogue of compounds with associated pEC50
- system_tested: human M4 muscarinic acetylcholine receptor (Homo sapiens)
- Construct: expressed in transfected cells; host or cells: CHO-K1
- assay_protocol: human FLIPR-based M4 PAM assay (Ca2+ dye fluorescence, CHO-K1 cells with human M4 receptor and Gαqi5)
- Assay type: cell-based
- cond: inflection point (IP) of dose response curve, FLIPR Tetra, acetylcholine at 20% of maximum response
Keep in mind that pEC50 stands for -log10 of concentration in molar terms.

Solved cases (3 shown):
[[record]]
compound = "Cc1c(N2CCC(OCC3(C)CC3)C3CC32)nc2c(c1C)C(=O)N(C)C2CO (single isomer, unassigned) [Example 8]"
reported = 5.52

[[record]]
compound = "Cc1c(N2CCC(OCC3(C)CC3)C3CC32)nc2c(c1C)C(=O)NC2 (single isomer, unassigned) [Example 1]"
reported = 7.41

[[record]]
compound = "Cc1cc2c(nc1N1CCC(OCC3(C)CC3)C3CC31)CNC2=O (single isomer, unassigned) [Example 3]"
reported = 7.40


**Q:** Data request, read-out pEC50, for CCc1cc2c(nc1N1CCC(OCC3(C)CC3)C3CC31)C(CO)N(C)C2=O (single isomer, unassigned) [Example 10]
**A:** 7.33

* * *

- system_tested: human M4 muscarinic acetylcholine receptor (Homo sapiens, UniProt P08173)
- Sequence (P08173 1-479): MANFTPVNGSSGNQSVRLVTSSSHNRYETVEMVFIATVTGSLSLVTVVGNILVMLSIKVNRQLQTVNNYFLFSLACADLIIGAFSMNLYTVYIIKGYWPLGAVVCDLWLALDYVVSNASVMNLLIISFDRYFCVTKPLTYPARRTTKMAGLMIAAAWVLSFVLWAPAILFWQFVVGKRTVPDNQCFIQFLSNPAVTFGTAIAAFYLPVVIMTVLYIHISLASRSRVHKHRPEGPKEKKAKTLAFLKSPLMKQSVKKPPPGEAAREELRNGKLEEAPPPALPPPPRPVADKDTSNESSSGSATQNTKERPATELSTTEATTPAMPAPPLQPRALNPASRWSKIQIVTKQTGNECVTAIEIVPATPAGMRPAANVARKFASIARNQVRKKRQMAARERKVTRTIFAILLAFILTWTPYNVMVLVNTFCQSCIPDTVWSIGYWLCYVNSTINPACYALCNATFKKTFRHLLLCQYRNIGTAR
- assay_protocol: human FLIPR-based M4 PAM assay (Ca2+ dye fluorescence, CHO-K1 cells with human M4 receptor and Gαqi5)
- cond: inflection point (IP) of dose response curve, FLIPR Tetra, acetylcholine at 20% of maximum response
assay_endpoint: log10 of EC50 (log10 of the value in nM)
Kindly note that the scale is log10 and the underlying EC50 is in nM.

[[record]]
compound = "Cc1c(N2CCC(OCC3(C)CC3)C3CC32)nc2c(c1C)C(=O)N1CCC(O)CC21 (single isomer, unassigned) [Example 23]"
reported = 3.37

[[record]]
compound = "Cc1c(N2CCC(Oc3ccc4c(c3)COC4)C3CC32)nc2c(c1C)C(=O)N(C)C2 (centres unmarked)"
reported = 2.16


**Q:** Data request, read-out log10 of EC50, for Cc1c(N2CCC(Oc3ccc4c(c3)COC4)C3CC32)nc2c(c1C)C(=O)NC2 (centres unmarked)
**A:** 2.22

**Q:** One more compound: Cc1c(N2CCC(OCC3(C)CC3)C3CC32)nc2c(c1C)C(=O)NC2 (single isomer, unassigned) [Example 2]
**A:** 3.12

**Q:** One more compound: CCc1cc2c(nc1N1CCC(OCC3(C)CC3)C3CC31)C(CO)N(C)C2=O (single isomer, unassigned) [Example 12]
**A:** 2.70

* * *

- system_tested: human M4 muscarinic acetylcholine receptor (Homo sapiens)
- Sequence (P08173 1-479): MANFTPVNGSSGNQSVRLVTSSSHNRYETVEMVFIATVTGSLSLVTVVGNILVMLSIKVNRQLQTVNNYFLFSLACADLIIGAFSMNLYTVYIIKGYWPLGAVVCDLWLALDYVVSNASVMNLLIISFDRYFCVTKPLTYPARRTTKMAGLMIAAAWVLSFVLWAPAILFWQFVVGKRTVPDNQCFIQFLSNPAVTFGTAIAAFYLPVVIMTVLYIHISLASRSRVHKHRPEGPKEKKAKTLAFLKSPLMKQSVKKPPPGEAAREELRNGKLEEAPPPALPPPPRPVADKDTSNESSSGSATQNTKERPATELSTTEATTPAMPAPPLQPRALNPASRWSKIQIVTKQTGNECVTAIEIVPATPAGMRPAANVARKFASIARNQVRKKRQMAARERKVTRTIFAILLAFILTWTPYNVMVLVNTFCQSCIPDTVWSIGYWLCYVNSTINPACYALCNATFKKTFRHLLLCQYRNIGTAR
- assay_protocol: human FLIPR-based M4 PAM assay (Ca2+ dye fluorescence, CHO-K1 cells with human M4 receptor and Gαqi5)
- cond: inflection point (IP) of dose response curve, FLIPR Tetra, acetylcholine at 20% of maximum response
- Description: In a typical experiment the M4 muscarinic acetylcholine receptor modulating activity of the compounds of the present invention was determined in accordance with the following experimental method. […] Following dye loading the cell plates are placed in a FLIPR Tetra instrument and while monitoring dye fluorescence (excitation […]), 10 uL of test substance at increasing concentrations is added, and fluorescence values are recorded for 4 min. […]
Catalogue of molecules with associated EC50
Provide only the numeric value, understood in nM.

[[record]]
molecule = "Cc1c(N2CCC(OCC3(C)CC3)C3CC32)nc2c(c1C)C(=O)N1CCC(O)CC21 (single isomer, unassigned) [Example 22]"
system_tested = "human M4 muscarinic acetylcholine receptor (Homo sapiens)"
reported = 116

[[record]]
molecule = "Cc1cc2c(nc1N1CCC(Oc3ccc4c(c3)CCOC4)C3CC31)CNC2=O (stereo not shown) [Example 31]"
system_tested = "human M4 muscarinic acetylcholine receptor (Homo sapiens)"
reported = 72

[[record]]
molecule = "Cc1c(N2CCC(OCC3(C)CC3)C3CC32)nc2c(c1C)C(=O)N(C)C2CO (single isomer, unassigned) [Example 6]"
system_tested = "human M4 muscarinic acetylcholine receptor (Homo sapiens)"
reported = 711


**Q:** Data request, read-out EC50, for Cc1cc2c(nc1N1CCC(OCC3(C)CC3)C3CC31)CNC2=O (single isomer, unassigned) [Example 4]
**A:** 1670

* * *

- system_tested: human M4 muscarinic acetylcholine receptor (Homo sapiens)
- assay_protocol: human FLIPR-based M4 PAM assay (Ca2+ dye fluorescence, CHO-K1 cells with human M4 receptor and Gαqi5)
- cond: inflection point (IP) of dose response curve, FLIPR Tetra, acetylcholine at 20% of maximum response
assay_endpoint: EC50 (nM)
Provide only the numeric value, understood in nM.

Solved cases (5 shown):
[[record]]
compound = "Cc1c(N2CCC(Oc3ccc4c(c3)COCC4)C3CC32)nc2c(c1C)C(=O)NC2 (stereo not shown)"
system_tested = "human M4 muscarinic acetylcholine receptor (Homo sapiens)"
assay_endpoint = "EC50"
display_unit = "nM"
reported = 281

[[record]]
compound = "Cc1c(N2CCC(OCC3(C)CC3)C3CC32)nc2c(c1C)C(=O)N(CC(C)(C)O)C2 (single isomer, unassigned)"
system_tested = "human M4 muscarinic acetylcholine receptor (Homo sapiens)"
assay_endpoint = "EC50"
display_unit = "nM"
reported = 12000

[[record]]
compound = "Cc1cc2c(nc1N1CCC(Oc3ccc4c(c3)COC4)C3CC31)CNC2=O (stereo not shown) [Example 29]"
system_tested = "human M4 muscarinic acetylcholine receptor (Homo sapiens)"
assay_endpoint = "EC50"
display_unit = "nM"
reported = 43

[[record]]
compound = "Cc1c(N2CCC(OCC3(C)CC3)C3CC32)nc2c(c1C)C(=O)N(C)C2CO (single isomer, unassigned) [Example 7]"
system_tested = "human M4 muscarinic acetylcholine receptor (Homo sapiens)"
assay_endpoint = "EC50"
display_unit = "nM"
reported = 659

[[record]]
compound = "Cc1c(N2CCC(OCC3(C)CC3)C3CC32)nc2c(c1C)C(=O)N1CCC(O)CC21 (single isomer, unassigned) [Example 21]"
system_tested = "human M4 muscarinic acetylcholine receptor (Homo sapiens)"
assay_endpoint = "EC50"
display_unit = "nM"
reported = 157


**Q:** Data request, read-out EC50, for Cc1cc2c(nc1N1CCC(Oc3ccc4c(c3)COCC4)C3CC31)CNC2=O (stereo not shown)
**A:** 156

**Q:** One more compound: Cc1c(N2CCC(OCC3(C)CC3)C3CC32)nc2c(c1C)C(=O)N1CCC(O)CC21 (single isomer, unassigned) [Example 24]
**A:** 2440

* * *

- system_tested: human M4 muscarinic acetylcholine receptor (Homo sapiens, UniProt P08173)
- Construct: expressed in transfected cells; host or cells: CHO-K1
- Sequence (P08173 1-479): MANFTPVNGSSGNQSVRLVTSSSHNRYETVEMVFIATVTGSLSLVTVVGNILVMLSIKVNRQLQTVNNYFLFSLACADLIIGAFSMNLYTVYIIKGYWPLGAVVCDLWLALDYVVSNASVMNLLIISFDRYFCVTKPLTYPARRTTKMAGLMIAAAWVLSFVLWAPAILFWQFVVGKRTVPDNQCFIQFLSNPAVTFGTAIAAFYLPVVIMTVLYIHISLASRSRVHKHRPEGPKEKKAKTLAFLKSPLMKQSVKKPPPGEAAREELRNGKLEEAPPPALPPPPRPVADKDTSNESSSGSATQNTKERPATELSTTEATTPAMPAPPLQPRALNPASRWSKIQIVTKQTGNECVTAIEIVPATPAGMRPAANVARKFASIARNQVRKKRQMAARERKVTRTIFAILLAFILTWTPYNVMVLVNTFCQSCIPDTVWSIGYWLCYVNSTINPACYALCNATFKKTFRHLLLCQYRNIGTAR
- assay_protocol: human FLIPR-based M4 PAM assay (Ca2+ dye fluorescence, CHO-K1 cells with human M4 receptor and Gαqi5)
- Format: cell-based
- cond: inflection point (IP) of dose response curve, FLIPR Tetra, acetylcholine at 20% of maximum response
assay_endpoint: EC50 (nM)
Provide only the numeric value, understood in nM.

Solved cases (3 shown):
[[record]]
compound = "CCc1cc2c(nc1N1CCC(OCC3(C)CC3)C3CC31)C(CO)N(C)C2=O (single isomer, unassigned) [Example 11]"
reported = 742

[[record]]
compound = "Cc1c(N2CCC(OCC3(C)CC3)C3CC32)nc2c(c1C)C(=O)N(CCC#N)C2 (single isomer, unassigned) [Example 16]"
reported = 1530

[[record]]
compound = "CCc1cc2c(nc1N1CCC(OCC3(C)CC3)C3CC31)C(CO)N(C)C2=O (single isomer, unassigned) [Example 9]"
reported = 8090


Shifting focus to the compound that follows.
**Q:** Data request, read-out EC50, for Cc1c(N2CCC(OCC3(C)CC3)C3CC32)nc2c(c1C)C(=O)N1CCC(C)(O)CC21 (stereo not shown)
**A:** 195
